These entries and their values trace back to ChEMBL document CHEMBL1126175.

# Test system: Staphylococcus aureus
# ASSAY_INFO: In vitro antibacterial activity against staphylococcus aureus IID 803,(gram-positive)
# Assay type: functional
Quick rule for you: MIC under 0.2 µg/mL gets criterion met, anything else gets criterion not met.

### Prompt Would you kindly verify if MIC of `CN1CCN(c2c(F)cc3c(=O)c(S(=O)(=O)O)c4scc5n4c3c2OC5)CC1` is strictly less than 0.2 µg/mL?
### Response criterion not met

### Prompt Would you kindly verify if MIC of `CCn1cc(C(=O)O)c(=O)c2cc(F)c(N3CCNCC3)nc21` is strictly less than 0.2 µg/mL?
### Response criterion not met

### Prompt Would you kindly verify if MIC of `O=C(O)c1c(=O)c2cc(F)c(N3CCNCC3)c3c2n2c(csc12)CO3` is strictly less than 0.2 µg/mL?
### Response criterion not met

### Prompt Would you kindly verify if MIC of `O=C(O)c1c(=O)c2cc(F)c(N3CCCC3)c3c2n2c(csc12)CO3` is strictly less than 0.2 µg/mL?
### Response criterion met

### Prompt Would you kindly verify if MIC of NC1CCN(c2c(F)cc3c(=O)c(C(=O)O)c4scc5n4c3c2OC5)C1 (stereo not given) is strictly less than 0.2 µg/mL?
### Response criterion not met

### Prompt Would you kindly verify if MIC of `CN(C)c1c(F)cc2c(=O)c(C(=O)O)c3scc4n3c2c1OC4` is strictly less than 0.2 µg/mL?
### Response criterion met

### Prompt Would you kindly verify if MIC of `CN1CCN(c2c(F)cc3c(=O)c(C(=O)O)c4scc5n4c3c2OC5)CC1.Cl` is strictly less than 0.2 µg/mL?
### Response criterion met

### Prompt Would you kindly verify if MIC of `O=C(O)c1c(=O)c2cc(F)c(N3CCSCC3)c3c2n2c(csc12)CO3` is strictly less than 0.2 µg/mL?
### Response criterion met

###

# Tested on: Pseudomonas aeruginosa
# ASSAY_INFO: In vitro antibacterial activity against Pseudomonas aeruginosa E-2,Pa(E),(gram-negative)
# Assay type: functional
MEASURED_PARAMETER: MIC (µg/mL)
Please give a number only; it is taken to be in µg/mL.

### Prompt Enter measured MIC, system Pseudomonas aeruginosa, for the molecule shown: CC(=O)NC1CCN(c2c(F)cc3c(=O)c(C(=O)O)c4scc5n4c3c2OC5)C1 (stereo not given)
### Response 6.25

### Prompt Enter measured MIC, system Pseudomonas aeruginosa, for the molecule shown: `O=C(O)c1c(=O)c2cc(F)c(N3CCCC3)c3c2n2c(csc12)CO3`
### Response 1.56

### Prompt Enter measured MIC, system Pseudomonas aeruginosa, for the molecule shown: CCNCC1CCN(c2c(F)cc3c(=O)c(C(=O)O)c4scc5n4c3c2OC5)C1 (stereo not given)
### Response 3.13

### Prompt Enter measured MIC, system Pseudomonas aeruginosa, for the molecule shown: NC1CCN(c2c(F)cc3c(=O)c(C(=O)O)c4scc5n4c3c2OC5)C1 (stereo not given)
### Response 0.78

### Prompt Enter measured MIC, system Pseudomonas aeruginosa, for the molecule shown: `CCn1cc(C(=O)O)c(=O)c2cc(F)c(N3CCNCC3)cc21`
### Response 1.56

###

# Tested on: Escherichia coli
# ASSAY_INFO: In vitro antibacterial activity was measured against nalidixic acid resistant strain 4 from Escherichia coli KC-14
# Type: functional
MEASURED_PARAMETER: MIC

### Prompt Output measured MIC for this item: O=C(O)c1c(=O)c2cc(F)c(N3CCC(O)C3)c3c2n2c(csc12)CO3 (centres undefined)
### Response 0.78 µg/mL

### Prompt Output measured MIC for this item: CC1COc2c(N3CCNCC3)c(F)cc3c(=O)c(C(=O)O)cn1c23 (centres undefined)
### Response 0.39 µg/mL

### Prompt Output measured MIC for this item: `CN1CCN(c2c(F)cc3c(=O)c(C(=O)O)c4scc5n4c3c2OC5)CC1.Cl`
### Response 0.2 µg/mL

### Prompt Output measured MIC for this item: CCn1cc(C(=O)O)c(=O)c2ccc(C)nc21 [NALIDIXIC ACID]
### Response 100 µg/mL

###

# Tested on: Pseudomonas aeruginosa
# ASSAY_INFO: In vitro antibacterial activity against Pseudomonas aeruginosa E-2,Pa(E),(gram-negative)
# Type: functional
MEASURED_PARAMETER: MIC (µg/mL)
Please give a number only; it is taken to be in µg/mL.

### Prompt Output measured MIC for this item: CC1CN(c2c(F)cc3c(=O)c(C(=O)O)c4scc5n4c3c2OC5)CCN1 (centres undefined)
### Response 0.78

### Prompt Output measured MIC for this item: `CCn1cc(C(=O)O)c(=O)c2cc(F)c(N3CCNCC3)nc21`
### Response 1.56

### Prompt Output measured MIC for this item: `O=C(O)c1c(=O)c2cc(F)c(N3CCCCC3)c3c2n2c(csc12)CO3`
### Response 6.25

### Prompt Output measured MIC for this item: Cl.O=C(O)c1cn(C2CC2)c2cc(N3CCNCC3)c(F)cc2c1=O [CIPROFLOXACIN HYDROCHLORIDE]
### Response 0.78

### Prompt Output measured MIC for this item: `O=C(O)c1c(=O)c2cc(F)c(N3CCSCC3)c3c2n2c(csc12)CO3`
### Response 3.13

### Prompt Output measured MIC for this item: `O=C(O)c1c(=O)c2cc(F)c(N3CCNCC3)c3c2n2c(csc12)CO3`
### Response 0.78

### Prompt Output measured MIC for this item: `CN(C)c1c(F)cc2c(=O)c(C(=O)O)c3scc4n3c2c1OC4`
### Response 6.25

###

Exercise: state measured MIC for each of the compounds provided.
# Test system: Escherichia coli
# ASSAY_INFO: In vitro antibacterial activity was measured against nalidixic acid resistant strain 7 from Escherichia coli KC-14
# Format: functional
Please give a number only; it is taken to be in µg/mL.

### Prompt Output measured MIC for this item: CC1COc2c(N3CCNCC3)c(F)cc3c(=O)c(C(=O)O)cn1c23 (centres undefined)
### Response 0.39

### Prompt Output measured MIC for this item: O=C(O)c1c(=O)c2cc(F)c(N3CCC(O)C3)c3c2n2c(csc12)CO3 (centres undefined)
### Response 0.2

### Prompt Output measured MIC for this item: `CN1CCN(c2c(F)cc3c(=O)c(C(=O)O)c4scc5n4c3c2OC5)CC1.Cl`
### Response 0.2

### Prompt Output measured MIC for this item: `CCn1cc(C(=O)O)c(=O)c2ccc(C)nc21`
### Response 100

###

# Tested on: Escherichia coli
# ASSAY_INFO: In vitro antibacterial activity was measured against nalidixic acid resistant strain 2 from Escherichia coli KC-14
# Type: functional
MEASURED_PARAMETER: MIC (µg/mL)
Please give a number only; it is taken to be in µg/mL.

### Prompt Output measured MIC for this item: CC1COc2c(N3CCNCC3)c(F)cc3c(=O)c(C(=O)O)cn1c23 (centres undefined)
### Response 6.25

### Prompt Output measured MIC for this item: `CN1CCN(c2c(F)cc3c(=O)c(C(=O)O)c4scc5n4c3c2OC5)CC1.Cl`
### Response 3.13

###

# System: Staphylococcus epidermidis
# ASSAY_INFO: In vitro antibacterial activity against staphylococcus epidermidis IAM 1296, (gram-positive)
# Type: functional
Quick rule for you: MIC under 0.2 µg/mL gets 1, anything else gets -1.

### Prompt Would you kindly verify if MIC of Cl.O=C(O)c1cn(C2CC2)c2cc(N3CCNCC3)c(F)cc2c1=O [CIPROFLOXACIN HYDROCHLORIDE] is strictly less than 0.2 µg/mL?
### Response -1

### Prompt Would you kindly verify if MIC of CC1CN(c2c(F)cc3c(=O)c(C(=O)O)c4scc5n4c3c2OC5)CCN1 (stereo not drawn) is strictly less than 0.2 µg/mL?
### Response -1

### Prompt Would you kindly verify if MIC of `O=C(O)c1c(=O)c2cc(F)c(N3CCOCC3)c3c2n2c(csc12)CO3` is strictly less than 0.2 µg/mL?
### Response 1

### Prompt Would you kindly verify if MIC of `CN(C)c1c(F)cc2c(=O)c(C(=O)O)c3scc4n3c2c1OC4` is strictly less than 0.2 µg/mL?
### Response 1

### Prompt Would you kindly verify if MIC of `COc1c(F)cc2c(=O)c(C(=O)O)c3scc4n3c2c1OC4` is strictly less than 0.2 µg/mL?
### Response -1

### Prompt Would you kindly verify if MIC of `CN1CCN(c2c(F)cc3c(=O)cc4scc5n4c3c2OC5)CC1` is strictly less than 0.2 µg/mL?
### Response -1

### Prompt Would you kindly verify if MIC of `CCn1cc(C(=O)O)c(=O)c2cc(F)c(N3CCNCC3)cc21` is strictly less than 0.2 µg/mL?
### Response -1

### Prompt Would you kindly verify if MIC of `O=C(O)c1c(=O)c2cc(F)c(N3CCCC3)c3c2n2c(csc12)CO3` is strictly less than 0.2 µg/mL?
### Response 1

### Prompt Would you kindly verify if MIC of `O=C(O)c1c(=O)c2cc(F)c(N3C[C@H](O)[C@@H](O)C3)c3c2n2c(csc12)CO3` is strictly less than 0.2 µg/mL?
### Response -1

### Prompt Would you kindly verify if MIC of CCNCC1CCN(c2c(F)cc3c(=O)c(C(=O)O)c4scc5n4c3c2OC5)C1 (stereo not drawn) is strictly less than 0.2 µg/mL?
### Response 1

### Prompt Would you kindly verify if MIC of `C[C@@H]1CN(c2c(F)cc3c(=O)c(C(=O)O)c4scc5n4c3c2OC5)C[C@H](C)N1.Cl` is strictly less than 0.2 µg/mL?
### Response -1

### Prompt Would you kindly verify if MIC of CC1COc2c(N3CCNCC3)c(F)cc3c(=O)c(C(=O)O)cn1c23 (stereo not drawn) is strictly less than 0.2 µg/mL?
### Response -1

### Prompt Would you kindly verify if MIC of NC1CCN(c2c(F)cc3c(=O)c(C(=O)O)c4scc5n4c3c2OC5)C1 (stereo not drawn) is strictly less than 0.2 µg/mL?
### Response -1

### Prompt Would you kindly verify if MIC of `CN1CCN(c2c(F)cc3c(=O)c(S(=O)(=O)O)c4scc5n4c3c2OC5)CC1` is strictly less than 0.2 µg/mL?
### Response -1

### Prompt Would you kindly verify if MIC of `O=C(O)c1c(=O)c2cc(F)c(N3CCNCC3)c3c2n2c(csc12)CO3` is strictly less than 0.2 µg/mL?
### Response -1

### Prompt Would you kindly verify if MIC of `O=C(O)c1c(=O)c2cc(F)c(N3CCSCC3)c3c2n2c(csc12)CO3` is strictly less than 0.2 µg/mL?
### Response 1

### Prompt Would you kindly verify if MIC of CC(=O)NC1CCN(c2c(F)cc3c(=O)c(C(=O)O)c4scc5n4c3c2OC5)C1 (stereo not drawn) is strictly less than 0.2 µg/mL?
### Response -1

### Prompt Would you kindly verify if MIC of `CCn1cc(C(=O)O)c(=O)c2cc(F)c(N3CCNCC3)nc21` is strictly less than 0.2 µg/mL?
### Response -1

### Prompt Would you kindly verify if MIC of `O=C1CN(c2c(F)cc3c(=O)c(C(=O)O)c4scc5n4c3c2OC5)CCN1` is strictly less than 0.2 µg/mL?
### Response -1
